Source: PubChem BioAssay (NCI)

System: UACC-257 melanoma
ASSAY_TEXT: NCI-60 one-dose screen, 48 h (100 = growth as untreated, 0 = no growth, -100 = all killed)
CONDITION_NOTES: 10 µM unless noted
The panel holds about 83,000 compounds, 20% with a hit somewhere; the sample as a whole holds those more often.
growth: recorded values
Give a bare numeral; the unit % is implied.

Sample answers from the record:
COc1ccc(N2C(=O)/C(=C/C(Cl)=C/c3ccc([N+](=O)[O-])cc3)SC2=S)cc1
48.2
CCCCCCCCNc1ncnc2c1ncn2Cc1nnc2c3ccccc3c(Cl)nn12
46.9

Next compound, growth to be filled in.
Query: Check the records and state growth for `O=C(OCc1ccc2c(Br)cc(Br)c(O)c2n1)N1CCN(C(=O)c2cc3ccccc3[nH]2)CC1`
Response: 31.5
